Each entry below carries its reported Tm of aFGF (maximum Tm induced by ligand), circular dichroism.
- Assayed System: aFGF (Homo sapiens)
- Construct: The recombinant derived, 140 amino add form is the preferred form of aFGF; N-terminal methionine (MetHaFGF); made in house; host or cells: microbial cells (preferred embodiment)
- Protocol Details: Thermal denaturation (Tm) of aFGF by circular dichroism
- Type: biochemical
- Condition Context: PBS pH 7.2, excess ligand (1-3X by weight; 120 mM sodium sulfate, 10 mM tetrapolyphosphate)
Write the number in °C without appending the unit.

Worked cases, answers included:
Compound	Assay Result
O=P(O)(O)OP(=O)(O)OP(=O)(O)OP(=O)(O)O [Tetrapolyphosphate]	66
O=S(=O)(O)OC[C@H]1O[C@@](COS(=O)(=O)O)(O[C@H]2O[C@H](COS(=O)(=O)O)[C@@H](OS(=O)(=O)O)[C@H](OS(=O)(=O)O)[C@H]2OS(=O)(=O)O)[C@@H](OS(=O)(=O)O)[C@@H]1OS(=O)(=O)O [Sucrose octasulfate, sucrose octasulfate]	65
O=S(=O)(O)OC1C(OS(=O)(=O)O)C(OS(=O)(=O)O)C(OS(=O)(=O)O)C(OS(=O)(=O)O)C1OS(=O)(=O)O (centres unmarked) [Inositol hexasulfate, inositol hexasulfate]	66
O=S(=O)([O-])[O-].[Na+].[Na+] [Sodium Sulfate, sodium sulfate]	57

Next:
Query :: Kindly indicate its recorded Tm of aFGF (maximum Tm induced by ligand), circular dichroism. Item: O=P(O)(O)O[C@H]1[C@H](OP(=O)(O)O)[C@@H](OP(=O)(O)O)[C@H](OP(=O)(O)O)[C@@H](OP(=O)(O)O)[C@H]1OP(=O)(O)O [Inositol hexaphosphate, inositol hexaphosphate]
Result :: 70

====

- Assayed System: acidic FGF (aFGF) (Homo sapiens, UniProt P05230)
- Sequence (P05230 16-155 limits assumed): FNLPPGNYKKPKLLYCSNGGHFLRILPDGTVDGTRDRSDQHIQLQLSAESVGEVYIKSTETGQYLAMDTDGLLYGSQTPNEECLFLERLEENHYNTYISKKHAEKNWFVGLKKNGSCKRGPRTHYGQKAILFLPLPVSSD
- Protocol Details: biochemical
- Condition Context: 40° C., 100 μg/ml aFGF, PBS pH 7.2; read-out: IC50: concentration of ligand at which the rate of heat-induced aggregation of aFGF is 50% of the sample without ligand (converted)
Reported Metric: IC50 (µM)
Write the number in µM without appending the unit.

Worked cases, answers included:
Molecule	IC50, µM
O=S(=O)(O)OC1C(OS(=O)(=O)O)C(OS(=O)(=O)O)C(OS(=O)(=O)O)C(OS(=O)(=O)O)C1OS(=O)(=O)O (stereo not drawn) [Inositol hexasulfate, inositol hexasulfate]	4.54
Nc1ncnc2c1ncn2[C@@H]1O[C@H](COP(=O)(O)OP(=O)(O)O)[C@@H](O)[C@H]1O	200

Query :: Kindly indicate its recorded IC50. Item: O=C(O)[C@H](O)[C@@H](O)[C@H](O[C@@H]1O[C@H](CO)[C@H](O)[C@H](O)[C@H]1O)[C@H](O)CO
Result :: 502

====

Each entry below carries its reported IC50.
- Assayed System: acidic FGF (aFGF) (Homo sapiens, UniProt P05230)
- Protocol Details: biochemical
- Condition Context: 40° C., 100 μg/ml aFGF, PBS pH 7.2; read-out: IC50: concentration of ligand at which the rate of heat-induced aggregation of aFGF is 50% of the sample without ligand (converted)
- From the text: Stabilization of aFGF can be determined by several independent methods including turbidity measurements, spectroscopic techniques, maintenance of protein mass, mitogenic activity and copper catalyzed oxidation. […] The kinetics of protein aggregation (stabilization) are monitored by the degree of light scattering at about OD350 nm using a Perkin Elmer Lambda 6 UV-visible spectrophotometer equipped with a six-cuvette holder. […] The change in optical density at 350 nm over time is continuously monitored. […]
Write the number in µM without appending the unit.

Worked cases, answers included:
Record Smiles	IC50, µM
Nc1ncnc2c1ncn2[C@@H]1O[C@H](COP(=O)(O)OP(=O)(O)OP(=O)(O)OC[C@H]2O[C@@H](n3cnc4c(N)ncnc43)[C@H](O)[C@@H]2O)[C@@H](O)[C@H]1O	250
Nc1ncnc2c1ncn2[C@@H]1O[C@H](COP(=O)(O)OP(=O)(O)OP(=O)(O)OP(=O)(O)OP(=O)(O)OC[C@H]2O[C@@H](n3cnc4c(N)ncnc43)[C@H](O)[C@@H]2O)[C@@H](O)[C@H]1O	10
Nc1ncnc2c1ncn2[C@@H]1O[C@H](COP(=O)(O)OP(=O)(O)OP(=O)(O)OP(=O)(O)OC[C@H]2O[C@@H](n3cnc4c(N)ncnc43)[C@H](O)[C@@H]2O)[C@@H](O)[C@H]1O	30
Nc1ncnc2c1ncn2[C@@H]1O[C@H](COP(=O)(O)OP(=O)(O)OP(=O)(O)OP(=O)(O)O)[C@@H](O)[C@H]1O	10

Query :: Kindly indicate its recorded IC50. Item: Nc1ncnc2c1ncn2[C@@H]1O[C@H](COP(=O)(O)OP(=O)(O)OP(=O)(O)OP(=O)(O)OP(=O)(O)OP(=O)(O)OC[C@H]2O[C@@H](n3cnc4c(N)ncnc43)[C@H](O)[C@@H]2O)[C@@H](O)[C@H]1O
Result :: 3

====

- Assayed System: acidic FGF (aFGF) (Homo sapiens, UniProt P05230)
- Protocol Details: biochemical
- Condition Context: 40° C.
Reported Metric: number of ligand molecules per aFGF (molar ratio) required for stabilization

Molecule	Assay Result
O=C(O)[C@H](O)[C@@H](O)[C@H](O[C@@H]1O[C@H](CO)[C@H](O)[C@H](O)[C@H]1O)[C@H](O)CO	about 80
N.N.O=S(=O)(O)O [Ammonium sulfate, ammonium sulfate]	about 80

====

- Test system: BALB/c 3T3 A31 fibroblasts
- Protocol Details: Fibroblast mitogenic assay ([3H]-thymidine incorporation into DNA)
- Type: cell-based
- Parameters: unit not given here
- Condition Context: complete absence of heparin; < = response did not plateau; * = cell death observed
Reported Metric: Bioactivity (mitogenic activity of aFGF in the presence of ligand)
Write the number on its own, no unit after it.

Worked cases, answers included:
Molecule	Assay Result
O=S(=O)(O)OC[C@H]1O[C@@](COS(=O)(=O)O)(O[C@H]2O[C@H](COS(=O)(=O)O)[C@@H](OS(=O)(=O)O)[C@H](OS(=O)(=O)O)[C@H]2OS(=O)(=O)O)[C@@H](OS(=O)(=O)O)[C@@H]1OS(=O)(=O)O [Sucrose octasulfate, sucrose octasulfate]	2.5
O=S(=O)(O)OC1C(OS(=O)(=O)O)C(OS(=O)(=O)O)C(OS(=O)(=O)O)C(OS(=O)(=O)O)C1OS(=O)(=O)O (centres unmarked) [Inositol hexasulfate, inositol hexasulfate]	2.3

Query :: Kindly indicate its recorded Bioactivity (mitogenic activity of aFGF in the presence of ligand). Item: O=S(=O)([O-])[O-].[Na+].[Na+] [Sodium Sulfate, sodium sulfate]
Result :: 0

====

- Assayed System: acidic FGF (aFGF) (Homo sapiens, UniProt P05230)
- Protocol Details: biochemical
Reported Metric: pIC50
Lab note: report pIC50 as minus log10 of the concentration in molar units, number only.

Query :: Kindly indicate its recorded pIC50. Item: Nc1ncnc2c1ncn2[C@@H]1O[C@H](COP(=O)(O)OP(=O)(O)OP(=O)(O)O)[C@@H](O)[C@H]1O [ATP]
Result :: 4.52

====

Each entry below carries its reported Cu Oxidation (% SH Lost in 10 Mins).
- Assayed System: aFGF (Homo sapiens, UniProt P05230)
- Construct: The recombinant derived, 140 amino add form is the preferred form of aFGF; N-terminal methionine (MetHaFGF); made in house; host or cells: microbial cells (preferred embodiment)
- Protocol Details: Copper-catalyzed oxidation of aFGF thiol groups
- Assay type: biochemical
- Condition Context: ligand 3X by weight; sodium sulfate 120 mM, tetrapolyphosphate 10 mM
- Protocol: Copper-catalyzed oxidation of aFGF is carried out in the following manner. Acidic FGF (about 80 μg/ml) is incubated in a 20 mM Tris, 0.15M potassium chloride, pH 8 solution containing about 20 μM cuptic chloride for varying periods of time at room temperature. […] Samples were incubated for 30 minutes, filtered through a 0.22 micron filter and the optical density measured at about 412 nm to determine sulfhydryl content, Riddles et al., Meth. […]
Write the number in % without appending the unit.

Molecule	Unit Spec	Cu Oxidation (% SH Lost in 10 Mins)
O=S(=O)(O)OC1C(OS(=O)(=O)O)C(OS(=O)(=O)O)C(OS(=O)(=O)O)C(OS(=O)(=O)O)C1OS(=O)(=O)O (stereo not shown) [Inositol hexasulfate, inositol hexasulfate]	%	22

Next:
Query :: Kindly indicate its recorded Cu Oxidation (% SH Lost in 10 Mins). Item: O=S(=O)([O-])[O-].[Na+].[Na+] [Sodium Sulfate, sodium sulfate]
Result :: 25

====

- Assayed System: acidic FGF (aFGF) (Homo sapiens, UniProt P05230)
- Protocol Details: biochemical
- Condition Context: 40° C., Table 1
Reported Metric: Approx. Molar Ratio (ligand to aFGF at 50% inhibition of aggregation)
Write the number on its own, no unit after it.

Worked cases, answers included:
Compound	Assayed System	Assay Result
Nc1ncnc2c1ncn2[C@@H]1O[C@H](COP(=O)(O)OP(=O)(O)OP(=O)(O)OP(=O)(O)OP(=O)(O)OC[C@H]2O[C@@H](n3cnc4c(N)ncnc43)[C@H](O)[C@@H]2O)[C@@H](O)[C@H]1O	acidic FGF (aFGF) (Homo sapiens, UniProt P05230)	1.6
Nc1ncnc2c1ncn2[C@@H]1O[C@H](COP(=O)(O)OP(=O)(O)OP(=O)(O)OC[C@H]2O[C@@H](n3cnc4c(N)ncnc43)[C@H](O)[C@@H]2O)[C@@H](O)[C@H]1O	acidic FGF (aFGF) (Homo sapiens, UniProt P05230)	42
Nc1ncnc2c1ncn2[C@@H]1O[C@H](COP(=O)(O)OP(=O)(O)OP(=O)(O)OP(=O)(O)OP(=O)(O)OP(=O)(O)OC[C@H]2O[C@@H](n3cnc4c(N)ncnc43)[C@H](O)[C@@H]2O)[C@@H](O)[C@H]1O	acidic FGF (aFGF) (Homo sapiens, UniProt P05230)	0.5
Nc1ncnc2c1ncn2[C@@H]1O[C@H](COP(=O)(O)OP(=O)(O)O)[C@@H](O)[C@H]1O	acidic FGF (aFGF) (Homo sapiens, UniProt P05230)	33
N.N.O=S(=O)(O)O [Ammonium sulfate, ammonium sulfate]	acidic FGF (aFGF) (Homo sapiens, UniProt P05230)	80
Nc1ncnc2c1ncn2[C@@H]1O[C@H](COP(=O)(O)OP(=O)(O)OP(=O)(O)OP(=O)(O)O)[C@@H](O)[C@H]1O	acidic FGF (aFGF) (Homo sapiens, UniProt P05230)	1.6

Query :: Kindly indicate its recorded Approx. Molar Ratio (ligand to aFGF at 50% inhibition of aggregation). Item: O=C(O)[C@H](O)[C@@H](O)[C@H](O[C@@H]1O[C@H](CO)[C@H](O)[C@H](O)[C@H]1O)[C@H](O)CO
Result :: 80

Query :: Kindly indicate its recorded Approx. Molar Ratio (ligand to aFGF at 50% inhibition of aggregation). Item: Nc1ncnc2c1ncn2[C@@H]1O[C@H](COP(=O)(O)OP(=O)(O)OP(=O)(O)O)[C@@H](O)[C@H]1O
Result :: 5
